Procedure text: protein stability index of a GFP-peptide fusion (GPS, HEK-293T) (PSI 1-6); higher = more stable;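 further: 24-mer peptide tiles fused after GFP, lentivirally expressed, FACS-sorted into six equal bins by GFP/DsRed ratio, decoded by Illumina sequencing, PSI is the read-weighted mean bin number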
Condition details: treatment: MLN4924 1 uM, 8 h; c terminus: a fixed tail appended
Would you please tag the item Y when its protein stability index is 4 or above, and N when it is below?

Monomer sequence: GKPLAGIYRKREEKRNAGNAVRSA [KMT5A]
Class name: Y
//
Monomer sequence: TMQLFSKQNPSRQEVTKLQQQVKT [FBXO28]
Class name: N
//
Monomer sequence: ALSPAGVCGGAQRPGHLPGLLLGS [CDC25B]
Class name: N
//
Monomer sequence: QKRYHCKECGKVFSQSAGLIQHQR [ZSCAN9]
Class name: N
//
Monomer sequence: LSSSEGLEPGSADPLANGCQGVSE [PSD2]
Class name: Y
//
Monomer sequence: LYPSLNVTSFDSVVPEKLDDLVPK [ALG2]
Class name: Y
//
Monomer sequence: VSVNLEAFSQAISAIQALRSSVSR [MED27]
Class name: N
//
Monomer sequence: YRNLTHNPPSDFSFQNMNSKRKAE [STK38L]
Class name: Y
//
Monomer sequence: ISEAQLKDRETSKVIYDFIEKTGG [WASL]
Class name: N
//
Monomer sequence: FKAHKSVLAARSPVFNAMFEHEME [SPOPL]
Class name: N
//
Monomer sequence: SSSGDLADLENEDIFPELDDILYH [DLC1]
Class name: Y
//
Monomer sequence: YEIPHFRLKKVENIKIWLSLRSYL [PHTF1]
Class name: N
//
Monomer sequence: KARKTYERLVAQFPSSGRFWKLYI [CSTF3]
Class name: N
//
Monomer sequence: GLDPEPLPLMDLCRRSIRSALGRQ [SPSB4]
Class name: N
//
Monomer sequence: SLVHMDIKPSNIFISRTSIPNAAS [WEE1]
Class name: N
//
Monomer sequence: LLGAVNFFVSSINTLVTKTMEDTL [ARFIP2]
Class name: N
//
Monomer sequence: RADPLVCATGLLGSAPFLFLSLAC [SPNS1]
Class name: N
//
Monomer sequence: AEDTEKKDEPSKYNQQQALIDQRY [CEP70]
Class name: Y
//
Monomer sequence: SNSCQDSTDTESNNEEQRSGLIYL [IKZF1]
Class name: Y
//
Monomer sequence: ETELSLRQLVEADINGLRRILDEL [KRT36]
Class name: N
